- assay.text: Cytotoxicity against human Bel7404 cells after 48 hrs by MTT assay
- Assay type: functional, cell-based
- condition.context: BEL-7404, 48 h
measured.parameter: IC50 (µM)

compound=CC(C)c1ccc2c(c1)CC[C@H]1[C@](C)(C(=O)N[C@H](Cc3ccccc3)C(=O)Nc3ccc(F)c(Cl)c3)CCC[C@]21C unit_abbrev=µM result=26.1
compound=CC(C)c1ccc2c(c1)CC[C@H]1[C@](C)(C(=O)N[C@H](Cc3ccccc3)C(=O)Nc3ccccc3Cl)CCC[C@]21C unit_abbrev=µM result=15.8
compound=COc1ccc(OC)c(NC(=O)[C@@H](Cc2ccccc2)NC(=O)[C@]2(C)CCC[C@]3(C)c4ccc(C(C)C)cc4CC[C@@H]23)c1 unit_abbrev=µM result=56.3

Source of measurements: ChEMBL document CHEMBL3124769
